Each record here notes measured activity coefficient.
test: activity coefficient (dimensionless); of the first substance listed, at infinite dilution; xn = mol fraction of the nth substance listed; details: 298.15 K; 101 kPa; Liquid; Chromatography; x1 = 0
Kindly provide the number alone.

Example entries begin here.
1) CC(C)O [propan-2-ol] + CCCCn1cc[n+](C)c1.COS(=O)(=O)[O-]	1.03
2) CC(C)(C)O [2-methylpropan-2-ol] + CCCCn1cc[n+](C)c1.COS(=O)(=O)[O-]	1.38

Data request: Give the measured activity coefficient for CC(C)CO [2-methyl-1-propanol] + CCCCn1cc[n+](C)c1.COS(=O)(=O)[O-]
Data returned: 1.44

Data request: Specify reported activity coefficient for the molecule shown: CCO [ethanol] + CCCCn1cc[n+](C)c1.COS(=O)(=O)[O-]
Data returned: 0.64

Data request: Entry CCC(C)O (configuration not stated) [butan-2-ol] + CCCCn1cc[n+](C)c1.COS(=O)(=O)[O-] needs its activity coefficient filled in; supply it.
Data returned: 1.45

Data request: Give the measured activity coefficient for CO [methanol] + CCCCn1cc[n+](C)c1.COS(=O)(=O)[O-]
Data returned: 0.39

Data request: Return reported activity coefficient. Input molecule: CCCO [propan-1-ol] + CCCCn1cc[n+](C)c1.COS(=O)(=O)[O-]
Data returned: 0.96
